- System Under Test: HIV-1 Env of isolate MGRM-F1-013 (subtype F) (HIV-1)
- Protocol Notes: cell-based or functional assay
Task for the reader: assign each of the following binders its reported IC50 (neutralization).

Reference set, count: 4
Binder: PGT-123 (antibody, V domains shown) VH: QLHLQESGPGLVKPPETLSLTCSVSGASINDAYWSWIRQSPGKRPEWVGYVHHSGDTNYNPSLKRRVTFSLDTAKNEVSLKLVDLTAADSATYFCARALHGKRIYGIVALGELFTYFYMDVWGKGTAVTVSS VL: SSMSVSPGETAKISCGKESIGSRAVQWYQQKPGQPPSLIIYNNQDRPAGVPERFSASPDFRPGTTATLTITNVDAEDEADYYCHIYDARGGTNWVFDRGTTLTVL
Measurement Kind: IC50 (neutralization)
Result: 0.08 µg/mL
--
Binder: PGT-131 (antibody, V domains shown) VH: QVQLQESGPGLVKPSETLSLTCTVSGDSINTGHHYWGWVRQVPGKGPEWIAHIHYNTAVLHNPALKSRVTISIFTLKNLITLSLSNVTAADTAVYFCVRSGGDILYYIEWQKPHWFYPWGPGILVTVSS VL: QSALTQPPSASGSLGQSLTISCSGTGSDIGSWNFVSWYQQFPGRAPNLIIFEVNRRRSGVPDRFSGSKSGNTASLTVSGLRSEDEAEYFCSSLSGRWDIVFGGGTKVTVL
Measurement Kind: IC50 (neutralization)
Result: > 50 µg/mL
--
Binder: PGT-130 (antibody, V domains shown) VH: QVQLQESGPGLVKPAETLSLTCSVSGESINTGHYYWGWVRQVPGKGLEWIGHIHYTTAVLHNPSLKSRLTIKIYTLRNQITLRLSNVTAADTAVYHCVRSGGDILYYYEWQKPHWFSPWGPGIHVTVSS VL: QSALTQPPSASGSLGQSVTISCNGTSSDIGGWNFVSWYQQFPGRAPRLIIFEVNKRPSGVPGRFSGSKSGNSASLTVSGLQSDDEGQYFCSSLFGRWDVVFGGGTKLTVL
Measurement Kind: IC50 (neutralization)
Result: > 50 µg/mL
--
Binder: PGT-127 (antibody, V domains shown) VH: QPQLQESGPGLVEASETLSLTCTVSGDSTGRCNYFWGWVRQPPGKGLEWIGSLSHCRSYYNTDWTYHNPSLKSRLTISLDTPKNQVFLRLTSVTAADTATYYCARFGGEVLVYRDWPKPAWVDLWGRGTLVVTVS VL: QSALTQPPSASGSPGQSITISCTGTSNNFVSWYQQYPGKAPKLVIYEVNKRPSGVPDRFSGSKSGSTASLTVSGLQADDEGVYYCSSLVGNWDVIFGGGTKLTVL
Measurement Kind: IC50 (neutralization)
Result: > 50 µg/mL

# input for lookup
The binder listed as PGT-128 (antibody, V domains shown) VH: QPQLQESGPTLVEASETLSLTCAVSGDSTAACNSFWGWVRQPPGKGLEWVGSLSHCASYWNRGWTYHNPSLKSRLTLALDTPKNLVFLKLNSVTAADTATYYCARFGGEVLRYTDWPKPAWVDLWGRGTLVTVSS VL: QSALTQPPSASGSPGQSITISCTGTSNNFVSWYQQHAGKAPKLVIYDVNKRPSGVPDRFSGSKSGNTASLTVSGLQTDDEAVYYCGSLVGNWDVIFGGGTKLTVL has a reported IC50 (neutralization) of 12.7 µg/mL
